System: W2
Assay: qHTS profiling for inhibitors of Plasmodium falciparum proliferation (AID 504749); note: nearly all actives have a fitted effect of over 60% in size
Details: P. falciparum in erythrocytes, SYBR Green DNA, 72 h; series mostly up to 12.8 µM
Method: NIH National Institute of Allergy and Infectious Diseases [NIAID] NIH Chemical Genomics Center [NCGC] […] Because mature erythrocytes lack DNA, only Plasmodium-derived DNA is detected. NCGC Assay Protocol Summary: The SYBR Green viability assay was adapted from a method described previously (Plouffe et al., 2008). […] The following morning, fluorescence intensity at 485(14) nm excitation and 535(25) nm emission wavelengths was measured on an EnVision (Perkin Elmer) plate reader. […]
Records with an inconclusive call do not appear. Calls of active or inactive are those of the source. Calls come from the whole dose curve; as a rule, active = well fitted inhibition curve with a large enough effect; inconclusive = small, poorly fitted or top-dose-only effect; inactive = flat fitted curve, though single readings scatter.
Mark one answer only. Choices: active, inactive

For orientation, consider the following solved cases.
>>> class_assignment("CN[C@H]1[C@@H](O)[C@@H](NC)[C@@H]2O[C@@]3(O)C(=O)C[C@@H](C)O[C@H]3O[C@H]2[C@H]1O")
"inactive"
>>> class_assignment("CCC(=O)O[C@@H]1[C@H](C)O[C@H](O[C@H]2[C@@H](N(C)C)[C@H](O)[C@@H](O[C@@H]3[C@@H](CC=O)C[C@@H](C)[C@@H](O)/C=C\\C=C/C[C@@H](C)OC(=O)C[C@@H](OC(=O)CC)[C@H]3OC)O[C@H]2C)C[C@]1(C)O")
"active"
>>> class_assignment("CCC(=O)OCC(=O)[C@@]1(OC(=O)CC)[C@H](C)C[C@@H]2[C@@H]3[C@H]([C@@H](O)C[C@@]21C)[C@]1(C)C=CC(=O)C=C1C[C@@H]3Cl")
"active"
>>> class_assignment("COC1CC(O[C@H]2/C(C)=C/CC3CC(C[C@]4(CCC(C)C(C5CCCCC5)O4)O3)OC(=O)[C@H]3C=C(C)/C(=N/O)C4OC/C(=C\\C=C\\[C@@H]2C)[C@@]43O)OC(C)C1O (stereo not given in full)")
"active"
>>> class_assignment("COc1ccc(OC)c([C@H](O)CNC(=O)CN)c1")
"inactive"

Per the records of this test, what outcome belongs to `CCC(=O)O[C@@]1(C(=O)SCF)[C@@H](C)C[C@H]2[C@@H]3C[C@@H](F)C4=CC(=O)C=C[C@@]4(C)[C@]3(F)[C@@H](O)C[C@]21C` ?
active

What is the recorded call for this compound in the test? `CCc1c(C)[nH]c2c1C(=O)[C@H](CN1CCOCC1)CC2`
inactive

Outcome? CC(C)=CCC[C@](C)(O)C1CC=C(C)CC1 (stereo not given in full)
inactive

====

Target: ATP-dependent 6-phosphofructokinase (Trypanosoma brucei brucei) (UniProt O15648)
Sequence (O15648 whole entry, looked up): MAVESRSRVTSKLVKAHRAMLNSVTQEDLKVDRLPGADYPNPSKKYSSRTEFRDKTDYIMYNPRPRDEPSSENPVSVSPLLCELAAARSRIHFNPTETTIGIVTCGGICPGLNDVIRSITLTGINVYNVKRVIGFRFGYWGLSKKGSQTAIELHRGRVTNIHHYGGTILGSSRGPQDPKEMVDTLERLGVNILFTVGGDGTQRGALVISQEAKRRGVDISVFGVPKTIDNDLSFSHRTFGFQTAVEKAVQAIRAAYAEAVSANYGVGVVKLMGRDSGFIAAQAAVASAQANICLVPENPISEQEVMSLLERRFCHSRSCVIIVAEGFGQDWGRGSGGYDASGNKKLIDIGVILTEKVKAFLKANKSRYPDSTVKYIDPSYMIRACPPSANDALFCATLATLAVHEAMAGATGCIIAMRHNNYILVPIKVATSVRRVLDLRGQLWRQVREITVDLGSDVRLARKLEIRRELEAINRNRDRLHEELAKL
Assay: qHTS Assay to Find Inhibitors of T. brucei phosphofructokinase: hit validation (AID 492961);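 note: luminescence reports ADP formed as PFK phosphorylates fructose-6-phosphate with ATP; % is set by controls: 0 for no effect and ±100 for the full control effect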
Conditions: T. brucei PFK, ADP-Glo luminescence; series mostly up to 24.3 µM
Results filed as inconclusive are left out. Calls of active or inactive are those of the source. Calls follow the shape of the dose curve; as a rule, active = well fitted inhibition curve with a large enough effect; inconclusive = small, poorly fitted or top-dose-only effect, or effect the other way; inactive = flat fitted curve, though single readings scatter.
quantity kind: outcome

Take a look at these entries with their results.
>>> result_value("COc1cc(C2c3cc4c(cc3C(O[C@@H]3OC5COC(c6cccs6)OC5C(O)C3O)C3COC(=O)C23)OCO4)cc(OC)c1O (stereo not given in full)")
"inactive"
>>> result_value("NS(=O)(=O)c1cc2c(cc1Cl)N[C@@H](CC1CCCC1)NS2(=O)=O")
"inactive"
>>> result_value("CN(C/C=C\\c1ccccc1)Cc1cccc2ccccc12")
"inactive"
>>> result_value("COc1ccc(C[C@@](C)(N)C(=O)O)cc1OC")
"inactive"

Given the entry `CC1=C(C(=O)O)N2C(=O)[C@@H](NC(=O)[C@@H](N)c3ccc(O)cc3)[C@@H]2SC1` , report its measured outcome.
inactive

====

Tested on: CP260
Experiment: qHTS profiling for inhibitors of Plasmodium falciparum proliferation (AID 504749); note: nearly all actives have a fitted effect of over 60% in size
Conditions: P. falciparum in erythrocytes, SYBR Green DNA, 72 h; series mostly up to 12.8 µM
Results filed as inconclusive are left out. The source made the active and inactive calls. The call rests on the fitted dose curve; in most records, active means well fitted inhibition curve with a large enough effect; inconclusive means small, poorly fitted or top-dose-only effect; inactive means flat fitted curve, though single readings scatter.
Lab note: assign the record to one of Y (active), N (inactive)

What did the test return for `NC(=O)c1ccc[n+]([C@@H]2O[C@H](COP(=O)([O-])OP(=O)(O)OC[C@H]3O[C@@H](n4cnc5c(N)ncnc54)[C@@H](O)[C@@H]3O)[C@@H](O)[C@@H]2O)c1` ?
N

Hi, sorry to bother you, what did the test record for `Cc1ccc2c(c1)c1c3n2CCN[C@H]3CCC1` ?
N

// return assay outcome for `CCOC(=O)O[C@]1(C(=O)COC(=O)CC)CC[C@@H]2[C@@H]3CCC4=CC(=O)C=C[C@@]4(C)[C@H]3[C@H](O)C[C@]21C`
N

Hello, I am checking results. What call was entered for `CC[C@H](CO)NCCN[C@@H](CC)CO` ?
N

Returns: the outcome recorded for `C[C@]1(c2ccccc2)OC(C(=O)O)=CC1=O` in this assay.
N

Hi team, can someone confirm the assay call for `CC(=O)O[C@]1(C(C)=O)CC[C@@H]2[C@@H]3C=C(C)C4=CC(=O)CC[C@@]4(C)[C@H]3CC[C@]21C` ?
N

Which outcome did this test record for the compound `CCN(CC)CCOC(=O)[C@@H](Cc1cccc2ccccc12)C[C@@H]1CCCO1` ?
N

Could you please tell me the result logged for `CCC(=O)OCC(=O)[C@@]1(OC(=O)CC)[C@H](C)C[C@@H]2[C@@H]3[C@H]([C@@H](O)C[C@@]21C)[C@]1(C)C=CC(=O)C=C1C[C@@H]3Cl` in this assay?
Y

====

Molecular target: Rap guanine nucleotide exchange factor 3 (Homo sapiens)
Test: Confirmatory qHTS for antagonist of cAMP-regulated guanine nucleotide exchange factor 3 (EPAC1) (AID 1645880); note: nearly all actives have a fitted effect of over 55% in size
Settings: EPAC1 Rap1B-BODIPY-GDP exchange, fluorescence; series mostly up to 115 µM
Inconclusive results are not listed. The source made the active and inactive calls. Calls come from the whole dose curve; as a rule, active = well fitted inhibition curve with a large enough effect; inconclusive = small, poorly fitted or top-dose-only effect; inactive = no such curve, though single readings can be large or run the other way.
Log the outcome using a class from 1.0 = active, 0.0 = inactive

>>> class_assignment("N#Cc1c(NC(=O)c2ccc(Br)o2)n(-c2ccccc2)c2nc3ccccc3nc12")
1.0
>>> class_assignment("Cc1ccc(-c2csc(NC(=O)/C=C/c3ccco3)c2C(=O)O)cc1")
1.0
>>> class_assignment("O=S(=O)(NCc1cn2ccsc2n1)c1cccs1")
0.0
>>> class_assignment("COc1ccccc1NC(=O)Nc1nc(CC(=O)Nc2ccc(N(C)C)cc2)cs1")
0.0
>>> class_assignment("Cn1c(COc2ccc(Cl)cc2)nc2ccccc2c1=O")
1.0

For `CCOC(=O)/C(C#N)=C/c1ccc(N2CCCCC2)cc1` , which call appears in the assay record?
0.0

====

Target: Rap guanine nucleotide exchange factor 3 (Homo sapiens)
Test: Counterscreen qHTS for antagonist of cAMP-regulated guanine nucleotide exchange factor 3 (EPAC1) (AID 1645888);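 note: fluorescence loss as bound BODIPY-GDP is released from Rap1B; % of control where 0% means no effect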
Conditions: Rap1B-BODIPY-GDP nucleotide exchange, fluorescence; series mostly up to 154 µM
Results filed as inconclusive are left out. The source made the active and inactive calls. Calls come from the whole dose curve; as a rule, active = well fitted inhibition curve with a large enough effect; inconclusive = small, poorly fitted or top-dose-only effect; inactive = no such curve, though single readings can be large or run the other way.
quantity kind: activity change, negative = inhibition

The following compounds have reported results that may help.
>>> result_value("Cc1[nH][nH]c(=O)c1C(c1c(C)[nH][nH]c1=O)c1cn(Cc2ccccc2Cl)c2ccccc12")
"inactive"
>>> result_value("Cc1cc(N=Nc2ccccc2C(=O)O)c(C)c(C)c1O")
"-28.9% [at 30.8 µM] (inactive)"
>>> result_value("CC(C)OP(=O)(c1ccc(N(C)C)cc1)C(Nc1ccccc1)c1ccccc1 (stereo not given)")
"inactive"
>>> result_value("COc1cccc2c(N/N=C/c3ccco3)cc(C)nc12")
"inactive"
>>> result_value("CCN(CC(=O)Nc1ccccc1C(F)(F)F)C(=O)c1cc2c(s1)CCCCC2")
"inactive"

Each of the following entries comes with a recorded value; kindly state activity change, negative = inhibition for each.
1. Cn1c(SCc2c(Cl)cccc2Cl)nnc1-c1ccc2nonc2c1
2. COCOCCn1cc(CN2CCS(=O)(=O)N(Cc3ccc(-c4ccc(C)cc4)cc3)C(CC(C)C)C2=O)nn1 (stereo not given)
3. CC(C)(C)C(=O)Nc1ccc2nc(SCC(=O)N3CCc4ccccc43)sc2c1
4. CCCCCn1c(C)c2c(OCC)cccc(=O)c2c1C
5. O=[N+]([O-])c1cc([N+](=O)[O-])c2oc(-c3ccccc3)c(Br)c2c1O

1: -10.9% [at 30.8 µM] (inactive); 2: 15.6% [at 30.8 µM] (inactive); 3: inactive; 4: 23.1% [at 30.8 µM] (inactive); 5: inactive

====

System: CP203
Assay: qHTS profiling for inhibitors of Plasmodium falciparum proliferation (AID 504749); note: nearly all actives have a fitted effect of over 60% in size
Conditions: P. falciparum in erythrocytes, SYBR Green DNA, 72 h; series mostly up to 12.8 µM
Inconclusive results are not listed. Calls of active or inactive are those of the source. The call rests on the fitted dose curve; in most records, active means well fitted inhibition curve with a large enough effect; inconclusive means small, poorly fitted or top-dose-only effect; inactive means flat fitted curve, though single readings scatter.
quantity kind: outcome

Please review the following examples before continuing.
>>> result_value("CN1C(=O)C[C@H](c2ccccc2)C1=O")
"inactive"
>>> result_value("CCOC(=O)C1=CC(OC(CC)CC)C(NC(C)=O)C(N)C1 (stereo not given)")
"inactive"
>>> result_value("C/C1=C2N=C(/C=C3N=C(/C(C)=C4\\[N-]C(C)(C5N=C1C(C)(CCC(=O)NCC(C)OP(=O)([O-])O[C@H]1C(O)C(n6cnc7cc(C)c(C)cc76)O[C@@H]1CO)C5CC(N)=O)C(C)(CC(N)=O)C4CCC(N)=O)C(C)(CC(N)=O)C\\3CCC(N)=O)C(C)(C)C/2CCC(N)=O.[CH2-]C1OC(n2cnc3c(N)ncnc32)C(O)C1O.[Co] (stereo not given in full)")
"inactive"
>>> result_value("C=CC1=C(C(=O)O)N2C(=O)[C@@H](NC(=O)/C(=N\\OCC(=O)O)c3csc(N)n3)[C@@H]2SC1")
"inactive"
>>> result_value("COc1ccc(OC)c([C@H](O)CNC(=O)CN)c1")
"inactive"

Please state, for each entry, its recorded outcome.
1. CC[C@@]12CCCN3CCc4c(n(c5ccccc45)[C@](O)(C(=O)OC)C1)C32 (stereo not given in full)
2. CC(=O)N[C@H](CC(C)C)C(=O)O
3. CC(=O)[C@@]1(O)CC[C@H]2[C@H]3C[C@@H](C)C4=CC(=O)C=C[C@]4(C)[C@@]3(F)[C@@H](O)C[C@]21C
4. CC[C@H](CO)NCCN[C@@H](CC)CO
5. OCC1OC(n2cnc3c(=S)nc[nH]c32)C(O)C1O (stereo not given)

inactive
inactive
inactive
inactive
inactive

Where do the numbers come from? From PubChem BioAssay (NCATS).
